biological target: SARS-CoV-2 S ectodomain trimer, prefusion-stabilized, 2P variant (Wrapp et al., 2020) (SARS-CoV-2, Wuhan-Hu-1, UniProt P0DTC2, stabilised)
measurementKind: binding result

Exam item: Name the recorded binding result for G32L2 (antibody, V domains shown) VH: QVQLVESGGGVVQPGTSLRLSCAASGFTFSNYDIHWVRQAPGKGLEWVAVISYDGSNKYYADSVKGRFTISRDNSKNTLYLQMNSLRAEDTAVYYCAKDLVLRYFDWLFDGPDYWGQGTLVTVSS VL: SYELTQPPSVSVSPGQTARITCSGDALPKKYAYWYQQKSGQAPVLVIYEDSKRPSGIPERFSGSSSGTMATLTISGAQVEDEADYYCYSTDSSGNHGVFGGGTKLTVL .
Marked response: binds

Exam item: Subsequent entry: C882C12 (antibody, V domains shown) VH: QVQLVQSGAEVKKPGASVKVSCKASGYTFTGYYMHWVRQAPGQGLEWMGWINPNSDVTNYAQKFQGWVTMTRDTSISTAYMELSRLRSDDTAVYYCAREIPSSGYYSGGLDYWGQGTLVTVSS VL: QSALTQPRSVSGSPGQSVTISCTGTSSDVGGYNYVSWYQQYPGKAPKLMIYDVSKRPSGVPDRFSGSKSGNTASLTISGLQAEDEADYYCCSYAGTYTGVFGGGTKLTVL
Marked response: binds

Exam item: Now try C83B8 (antibody, V domains shown) VH: QVQLVQSGAEVKKPGSSVKVSCKASGGTFSSYAISWVRQAPGQGLEWMGGIIPIFGTANYAQKFQGRVTITADESTSTAYMELSSLKSEDTAVYYCASTSYYDSSGYYLDYWGQGTLVTVSS VL: EIVLTQSPATLSLSPGERATLSCRASQSVSSFLAWYQQKPGQAPRLLIYDASNRATGIPARFSGSGSGTDFTLTISSLEPEDFAVYYCQQRSNWPPKITFGQGTRLEIK .
Marked response: binds
